# System: Danio rerio embryo/larva
# procedureSummary: max % larvae with abnormal position across tested concentrations; higher = more toxic; extreme values may be limits of the assay
# cond: exposure: 6-8 hpf to 5 dpf, scored at 6 dpf
readoutLabel: max % larvae (%)
Enter your answer as a number in %; do not include the unit.

Exam item: Need max % larvae, item O=C(O)C(F)(F)C(F)(F)C(F)(F)C(F)(F)C(F)(F)C(F)(F)C(F)F [8H-Perfluorooctanoic acid] (max tested concentration (log10 uM): 2)
Marked response: 0

Exam item: Any idea what its max % larvae is? The molecule is C=CC(=O)OCC(F)(F)C(F)(F)C(F)(F)C(F)(F)C(F)(F)C(F)(F)C(F)(F)F [1H,1H-Perfluorooctyl acrylate] (max tested concentration (log10 uM): 2)
Marked response: 0

Exam item: Which max % larvae value belongs to O=C(CC(=O)C(F)(F)C(F)(F)C(F)(F)F)c1cccs1 [(Perfluorobutyryl)-2-thenoylmethane] (max tested concentration (log10 uM): 0.477121) ?
Marked response: 0

====

Measured BMC swim bladder non-inflation, listed per entry for reference.
# Test system: Danio rerio embryo/larva
# procedureSummary: BMC swim bladder non-inflation; higher = less potent
# cond: max tested concentration (log10 uM): 2; exposure: 6-8 hpf to 5 dpf, scored at 6 dpf
Provide the reading as a plain figure in µM.

# count of solved cases: 3
{"columns": ["compound", "unitOfMeasure", "BMC swim bladder non-inflation"],
 "data": [
  ["FC(F)(I)C(F)(F)C(F)(F)C(F)(F)C(F)(F)C(F)(F)I", "µM", 6.49],
  ["FC(F)(F)C(F)(F)C(F)(F)C(F)(F)C(F)(F)CCI", "µM", 31.5],
  ["FC(F)(I)C(F)(F)C(F)(F)C(F)(F)I", "µM", 25.6]
]}

Exam item: Any idea what its BMC swim bladder non-inflation is? The compound is O=S(=O)(O)C(F)(F)C(F)(F)C(F)(F)C(F)(F)C(F)(F)C(F)(F)C(F)(F)C(F)(F)F [Potassium perfluorooctanesulfonate]
Marked response: 2.81

Exam item: State the recorded BMC swim bladder non-inflation for this entry: O=C(O)C(F)(F)C(F)(F)C(F)(F)C(F)(F)C(F)(F)C(F)(F)C(F)(F)C(F)(F)F
Marked response: 25.5

Exam item: What BMC swim bladder non-inflation value was documented for this compound, C=CC(=O)OCCC(F)(F)C(F)(F)C(F)(F)C(F)(F)F [2-(Perfluorobutyl)ethyl acrylate] ?
Marked response: 75.7

Exam item: May I ask what BMC swim bladder non-inflation has been recorded for O=C(O)C(F)(F)C(F)(F)C(F)(F)C(F)(F)C(F)(F)C(F)(F)C(F)(F)C(F)(F)Cl ?
Marked response: 6.38

Exam item: Please give the measured BMC swim bladder non-inflation for this compound: O=S(=O)(Cl)C(F)(F)C(F)(F)C(F)(F)C(F)(F)C(F)(F)C(F)(F)C(F)(F)C(F)(F)F [Perfluoro-1-octanesulfonyl chloride]
Marked response: 10.4

====

# Test system: Danio rerio embryo/larva
# procedureSummary: BMC any abnormality; max tested concentration (log10 uM): 2; higher = less potent
# cond: exposure: 6-8 hpf to 5 dpf, scored at 6 dpf
fulfilled means recorded BMC any abnormality is 10 µM or above; not fulfilled means it is below 10 µM.

Exam item: Determine whether measured BMC any abnormality meets or exceeds 10 µM for FC(F)(I)C(F)(F)C(F)(F)C(F)(F)I
Marked response: fulfilled

Exam item: Hi, just wondering whether C=CC(=O)OCC(F)(F)C(F)(F)C(F)(F)COC(=O)C=C [1H,1H,5H,5H-Perfluoro-1,5-pentanediol diacrylate] shows BMC any abnormality of 10 µM or higher.
Marked response: not fulfilled

Exam item: Item O=S(=O)(O)C(F)(F)C(F)(F)C(F)(F)C(F)(F)C(F)(F)C(F)(F)F [Potassium perfluorohexanesulfonate] with BMC any abnormality of 10 µM or above?
Marked response: fulfilled

====

# System: Danio rerio embryo/larva
# procedureSummary: max % larvae with any abnormality across tested concentrations; max tested concentration (log10 uM): 2; higher = more toxic; extreme values may be limits of the assay
# cond: exposure: 6-8 hpf to 5 dpf, scored at 6 dpf
Entries and their max % larvae
Only the number, expressed in %, is required.

Exam item: Quick check: max % larvae of O=S(=O)(O)CCC(F)(F)C(F)(F)C(F)(F)C(F)(F)C(F)(F)C(F)(F)F ?
Marked response: 16.7

Exam item: max % larvae lookup needed for O=C(O)C(F)(F)C(F)(F)C(F)(F)C(F)(F)C(F)(F)C(F)(F)C(F)(F)C(F)(F)F , thanks.
Marked response: 100

Exam item: Item N=C(N)C(F)(F)C(F)(F)C(F)(F)C(F)(F)C(F)(F)C(F)(F)C(F)(F)F has what recorded max % larvae?
Marked response: 100

Exam item: What measured max % larvae goes with OCC(F)(F)C(F)(F)C(F)(F)C(F)F ?
Marked response: 16.7

Exam item: Look up max % larvae for this molecule: O=C(O)C(F)(F)C(F)(F)C(F)(F)C(=O)O
Marked response: 0

Exam item: Sample O=C(O)C(F)(F)C(F)(F)C(F)(F)C(F)(F)C(F)(F)C(F)(F)C(F)(F)F [Potassium perfluorooctanoate] — what was its max % larvae?
Marked response: 16.7

Exam item: I am curious: what max % larvae value has been reported for FC(F)(F)C(F)(F)C(F)(F)C(F)(F)C(F)(F)C(F)(F)I ?
Marked response: 0

Exam item: If you can, please state the reported max % larvae value of O=C(O)C(F)(F)C(F)(F)C(F)(F)C(F)(F)C(F)(F)F .
Marked response: 0

Exam item: For OCC(F)(F)OC(F)(F)C(F)(F)OC(F)(F)C(F)(F)OC(F)(F)CO [1H,1H,11H,11H-Perfluorotetraethylene glycol] , what is its reported max % larvae?
Marked response: 100

Exam item: Which max % larvae reading was recorded for the molecule O=C(O)C(F)(F)OC(F)(F)C(F)(F)OC(F)(F)F ?
Marked response: 4.17

Exam item: // max % larvae lookup, key: O=C(O)CCC(F)(F)C(F)(F)C(F)(F)F
Marked response: 25

Exam item: Report max % larvae for O=S(=O)(O)C(F)(F)C(F)(F)C(F)(F)C(F)(F)C(F)(F)C(F)(F)F [Potassium perfluorohexanesulfonate] please.
Marked response: 90.9

Exam item: Give the measured max % larvae of O=C(O)CCC(F)(F)C(F)(F)C(F)(F)C(F)(F)C(F)(F)C(F)(F)F .
Marked response: 100

====

# Test system: Danio rerio embryo/larva
# procedureSummary: max % larvae generally abnormal across tested concentrations; higher = more toxic; extreme values may be limits of the assay
# cond: exposure: 6-8 hpf to 5 dpf, scored at 6 dpf
readoutLabel: max % larvae generally abnormal across tested concentrations
Record the result as a number with its unit.

Example cases with answers are listed next.
{"columns": ["molecule", "measured"],
 "data": [
  ["FC(F)(Br)C(F)(F)C(F)(F)C(F)(F)C(F)(F)C(F)(F)Br [1,6-Dibromododecafluorohexane] (max tested concentration (log10 uM): 2)", "4.17%"],
  ["O=S(=O)(O)C(F)(F)C(F)(F)C(F)(F)C(F)(F)F [Potassium perfluorobutanesulfonate] (max tested concentration (log10 uM): 2)", "4.17%"],
  ["COC(=O)C(F)(F)C(F)(F)C(F)(F)C(F)(F)C(F)(F)F [Methyl perfluorohexanoate] (max tested concentration (log10 uM): 2)", "0%"],
  ["C=C(C)C(=O)OCCC(F)(F)C(F)(F)C(F)(F)C(F)(F)C(F)(C(F)(F)F)C(F)(F)F [(Perfluoro-5-methylhexyl)ethyl 2-methylprop-2-enoate] (max tested concentration (log10 uM): 2)", "0%"],
  ["FC(F)(F)C(F)(C(F)(F)F)C(F)(F)C(F)(F)CC1CO1 (centres undefined) [3-(Perfluoro-3-methylbutyl)-1,2-propenoxide] (max tested concentration (log10 uM): 1.60206)", "0%"],
  ["FC(F)(F)C(F)(F)C(F)(F)C(F)(F)C(F)(F)C(F)(F)C(F)(F)CCI [1-Iodo-1H,1H,2H,2H-perfluorononane] (max tested concentration (log10 uM): 1.60206)", "0%"],
  ["O=C(O)C(F)(F)OC(F)(F)C(F)(F)OC(F)(F)C(=O)O [Perfluoro-3,6-dioxaoctane-1,8-dioic acid] (max tested concentration (log10 uM): 2)", "0%"],
  ["C=C(C)C(=O)OCC(F)(F)C(F)(F)C(F)(F)C(F)F [1H,1H,5H-Perfluoropentyl methacrylate] (max tested concentration (log10 uM): 2)", "25%"],
  ["O=S(=O)(O)C(F)(F)C(F)(F)C(F)(F)C(F)(F)C(F)(F)C(F)(F)C(F)(F)C(F)(F)F [Perfluorooctanesulfonic acid] (max tested concentration (log10 uM): 1)", "75%"],
  ["C=CC(=O)OCCC(F)(F)C(F)(F)C(F)(F)C(F)(F)C(F)(F)C(F)(F)C(F)(F)C(F)(F)F [2-(Perfluorooctyl)ethyl acrylate] (max tested concentration (log10 uM): 2)", "0%"]
]}

Exam item: Request - read-out max % larvae generally abnormal across tested concentrations | tested on Danio rerio embryo/larva | molecule O=S(=O)(O)C(F)(F)C(F)(F)C(F)(F)C(F)(F)C(F)(F)C(F)(F)F [Potassium perfluorohexanesulfonate] (max tested concentration (log10 uM): 2)
Marked response: 55.6%

Exam item: Form entry - test system: Danio rerio embryo/larva; read-out: max % larvae generally abnormal across tested concentrations; molecule: OCCC(F)(F)C(F)(F)C(F)(F)C(F)(F)C(F)(F)C(F)(F)C(F)(F)C(F)(F)F [2-(Perfluorooctyl)ethanol] (max tested concentration (log10 uM): 2)
Marked response: 22.2%

Exam item: Given the entry O=C(O)C(F)(F)C(F)(F)C(F)(F)C(=O)O [Perfluoropentanedioic acid] (max tested concentration (log10 uM): 2) , what max % larvae generally abnormal across tested concentrations was observed with Danio rerio embryo/larva?
Marked response: 0%

Exam item: max % larvae generally abnormal across tested concentrations of O=C(O)C(F)(F)C(F)(F)C(F)(F)C(F)(F)C(F)(F)C(F)(F)C(F)(F)C(F)(F)C(F)(F)C(F)F [11-H-Perfluoroundecanoic acid] (max tested concentration (log10 uM): 1.47712) on Danio rerio embryo/larva?
Marked response: 100%
